- subject of test: InsR (Homo sapiens, UniProt P06213)
- Sequence (P06213 28-1382, species assumed): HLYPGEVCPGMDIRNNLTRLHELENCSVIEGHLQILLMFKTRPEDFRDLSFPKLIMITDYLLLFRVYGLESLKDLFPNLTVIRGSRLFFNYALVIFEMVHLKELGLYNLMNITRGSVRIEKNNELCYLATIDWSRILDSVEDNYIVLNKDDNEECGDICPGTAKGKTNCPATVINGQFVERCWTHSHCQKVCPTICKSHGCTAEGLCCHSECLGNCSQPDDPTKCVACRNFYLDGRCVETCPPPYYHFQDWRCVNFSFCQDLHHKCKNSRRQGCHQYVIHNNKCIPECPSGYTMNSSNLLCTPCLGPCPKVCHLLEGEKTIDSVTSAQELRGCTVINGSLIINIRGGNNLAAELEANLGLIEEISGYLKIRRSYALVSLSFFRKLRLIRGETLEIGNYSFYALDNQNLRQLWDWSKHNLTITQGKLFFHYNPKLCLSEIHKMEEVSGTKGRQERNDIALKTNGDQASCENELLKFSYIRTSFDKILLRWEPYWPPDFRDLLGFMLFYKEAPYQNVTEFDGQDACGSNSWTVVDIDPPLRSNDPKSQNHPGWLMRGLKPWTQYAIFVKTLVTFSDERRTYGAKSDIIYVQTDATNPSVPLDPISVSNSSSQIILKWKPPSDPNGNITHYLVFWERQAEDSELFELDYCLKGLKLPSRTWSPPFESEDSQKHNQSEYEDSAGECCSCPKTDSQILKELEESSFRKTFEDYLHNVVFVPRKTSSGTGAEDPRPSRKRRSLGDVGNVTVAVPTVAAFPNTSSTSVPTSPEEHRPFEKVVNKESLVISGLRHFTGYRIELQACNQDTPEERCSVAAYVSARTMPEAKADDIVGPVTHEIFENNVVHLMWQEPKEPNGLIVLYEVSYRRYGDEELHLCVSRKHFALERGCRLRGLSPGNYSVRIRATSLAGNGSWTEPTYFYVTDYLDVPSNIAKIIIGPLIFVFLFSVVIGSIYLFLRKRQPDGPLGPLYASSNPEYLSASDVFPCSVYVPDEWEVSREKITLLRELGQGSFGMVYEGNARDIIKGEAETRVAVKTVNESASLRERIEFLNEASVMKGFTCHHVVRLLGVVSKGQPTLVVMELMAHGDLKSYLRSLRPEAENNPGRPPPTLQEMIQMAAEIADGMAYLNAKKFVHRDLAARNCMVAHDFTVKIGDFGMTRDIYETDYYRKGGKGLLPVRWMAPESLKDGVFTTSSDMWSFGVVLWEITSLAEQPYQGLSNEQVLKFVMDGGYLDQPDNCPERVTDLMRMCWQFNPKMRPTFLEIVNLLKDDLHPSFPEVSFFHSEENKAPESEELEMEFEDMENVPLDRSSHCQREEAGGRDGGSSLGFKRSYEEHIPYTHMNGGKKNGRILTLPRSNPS
- test details: Enzymatic kinase assay (filter-binding/flashplate)
- Type: biochemical
- test context: enzymatic; read-out: InsR IC50 values
measure name: pIC50
Keep in mind that pIC50 stands for -log10 of concentration in molar terms.

Task item: Can you look up pIC50 on InsR (Homo sapiens, UniProt P06213) for Nc1ncnc2c1c(-c1cccc(OC[C@@H]3CCCO3)c1F)cn2[C@H]1C[C@@H](CN2CC[S+]([O-])CC2)C1 [Example 6] ?
Reply: 7.41

Task item: Could you share what pIC50 was measured for Nc1ncnc2c1c(-c1cc(OCC34CCC(CC3)O4)ccc1F)cn2[C@H]1C[C@@H](N2CC[S+]([O-])CC2)C1 (relative stereo) [Example 34] , tested on InsR (Homo sapiens, UniProt P06213)?
Reply: 7.12

Task item: // lookup pIC50 | system=InsR (Homo sapiens, UniProt P06213) | key= [2H]C1([2H])C([2H])([2H])C2(COc3cccc(-c4cn([C@H]5C[C@@H](N6CC[S+]([O-])CC6)C5)c5ncnc(N)c45)c3F)OC1([2H])C([2H])([2H])C2([2H])[2H] [Example 18]
Reply: 7.37
